Tested on: GT3TKB;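 also: growth inhibition of the cell line, read out with a cell viability assay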
MEASUREMENT_PROTOCOL: cells
Assay type: functional, cell-based, Homo sapiens
COND: Homo sapiens, GT3TKB
Description: SANGER: Inhibition of human GT3TKB cell growth in a cell viability assay.
VALUE_KIND: IC50 (nM)
Report as a plain number; the unit nM is understood.

In the examples that follow, each entry is paired with its recorded IC50.
1) O=C(NCCCNc1nc(Nc2cccc(NC(=O)N3CCCC3)c2)ncc1I)c1cccs1 [BX-795] ... 1900
2) NC(=O)Nc1cc(-c2cccc(F)c2)sc1C(=O)N[C@H]1CCCNC1 [AZD-7762] ... 1490
3) CN(NC(=O)CC(=O)NN(C)C(=S)c1ccccc1)C(=S)c1ccccc1 [ELESCLOMOL] ... 16

Please turn your attention to the following entry.
Prompt: State its IC50 on GT3TKB: Nc1ccccc1NC(=O)c1ccc(CNC(=O)OCc2cccnc2)cc1 [ENTINOSTAT]
Completion: 4330
